Reference source: paper PMC11758220

Documented inhibition at 10 µM across a set of molecules
Subject Of Test: OSBP (Homo sapiens)
Construct: OSBP(377-807); host or cells: E. coli OverExpress C41
Sequence (P22059 377-807): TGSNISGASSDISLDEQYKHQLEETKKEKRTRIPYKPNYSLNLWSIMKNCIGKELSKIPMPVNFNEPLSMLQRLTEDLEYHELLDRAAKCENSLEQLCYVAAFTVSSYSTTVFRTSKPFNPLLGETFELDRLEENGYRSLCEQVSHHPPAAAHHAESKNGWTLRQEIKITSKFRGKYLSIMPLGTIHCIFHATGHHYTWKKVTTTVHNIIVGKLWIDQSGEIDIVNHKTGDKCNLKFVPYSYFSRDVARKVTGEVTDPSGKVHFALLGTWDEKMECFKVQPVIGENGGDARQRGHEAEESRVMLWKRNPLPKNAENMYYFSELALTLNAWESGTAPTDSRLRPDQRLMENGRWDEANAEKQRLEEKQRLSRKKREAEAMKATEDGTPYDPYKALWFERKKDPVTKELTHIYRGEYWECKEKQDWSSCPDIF
Experimental Protocol: Fluorescence polarisation (FP) competition with NBD-cholesterol, OSBP
Assay type: binding
Run Conditions: single dose
Source text: Protein expression constructs Human ASTER domains of Aster-A(359-547), -B(364-552) and -C(318-504) were subcloned into a pGEX-6p-2rbs vector, thus introducing the cloning artifact ‘GPLGS’.3 The pGEX-6P-1-GST-OSBP(377- […] a gift from James H. Hurley (University of California).4 The pHIS_2His6_Thrombin_STARD4(2-205;C75S) plasmid was a gift from Young Jun Im (Chonnam National University).5 STARD5A was a gift from Nicola Burgess-Brown (Addgene plasmid #42392; http://n2t.net/addgene:42392; […]
Endpoint: inhibition at 10 µM (%)

[[record]]
molecule = "C[C@]12CC[C@@H](O)C[C@H]1CCc1c2[nH]c2ncccc12 [Compound 3]"
subject_of_test = "OSBP (Homo sapiens)"
scale_unit = "%"
assay_result = 2.5

[[record]]
molecule = "C[C@]12CC[C@@H](O)C[C@H]1CCC(=O)c1cc(C(F)(F)F)ccc1NC2=O [Compound 11e]"
subject_of_test = "OSBP (Homo sapiens)"
scale_unit = "%"
assay_result = 15

[[record]]
molecule = "CC12CCC3CC1CCC21C(=Nc2ccc(Cl)cc21)O3 (centres unmarked) [Compound 15c]"
subject_of_test = "OSBP (Homo sapiens)"
scale_unit = "%"
assay_result = 3

[[record]]
molecule = "C[C@]12CC[C@@H]3C[C@H]1CC[C@@]21C(=Nc2ccc(N4CCN(Cc5ccncc5)CC4)cc21)O3 [Compound 24]"
subject_of_test = "OSBP (Homo sapiens)"
scale_unit = "%"
assay_result = 11

[[record]]
molecule = "CC12CCC3CC1CCC21C(=Nc2c(Br)cc(C(F)(F)F)cc21)O3 (centres unmarked) [Compound 15h]"
subject_of_test = "OSBP (Homo sapiens)"
scale_unit = "%"
assay_result = 10

[[record]]
molecule = "C[C@]12CC[C@@H]3C[C@H]1CC[C@@]21C(=Nc2ccc(-c4ccccc4)cc21)O3 [Compound 21a]"
subject_of_test = "OSBP (Homo sapiens)"
scale_unit = "%"
assay_result = 18

[[record]]
molecule = "Cc1cc(C)c2c3c([nH]c2c1)[C@@]1(C)CC[C@@H](O)C[C@H]1CC3 [Compound 10j]"
subject_of_test = "OSBP (Homo sapiens)"
scale_unit = "%"
assay_result = -16

[[record]]
molecule = "Cc1ccc2c(c1)[C@]1(O)CC[C@@H]3C[C@H](O)CC[C@]3(C)C1=N2 [Compound 14a]"
subject_of_test = "OSBP (Homo sapiens)"
scale_unit = "%"
assay_result = 17.3

[[record]]
molecule = "CCCCN(C)c1ccc2c(c1)[C@@]13CC[C@@H]4C[C@@H](CC[C@@]41C)OC3=N2 [Compound 19d]"
subject_of_test = "OSBP (Homo sapiens)"
scale_unit = "%"
assay_result = 49

[[record]]
molecule = "C[C@]12CC[C@@H](O)C[C@H]1CCc1sc(N)nc12 [Compound 8a]"
subject_of_test = "OSBP (Homo sapiens)"
scale_unit = "%"
assay_result = 18.6

[[record]]
molecule = "C[C@]12CC[C@@H](O)C[C@H]1CCc1[nH]c(-c3ccccc3)nc12 [Compound 9]"
subject_of_test = "OSBP (Homo sapiens)"
scale_unit = "%"
assay_result = 5

[[record]]
molecule = "COc1ccc2c(c1)[C@@]13CC[C@@H]4C[C@@H](CC[C@@]41C)OC3=N2 [Compound 15f]"
subject_of_test = "OSBP (Homo sapiens)"
scale_unit = "%"
assay_result = 10

[[record]]
molecule = "Cc1ccc2c(c1)C(=O)CC[C@@H]1C[C@H](O)CC[C@]1(C)C(=O)N2 [Compound 11c]"
subject_of_test = "OSBP (Homo sapiens)"
scale_unit = "%"
assay_result = 18.7

[[record]]
molecule = "CC12CCC3CC1CCC21C(=Nc2ccc(NCc4ccccc4)cc21)O3 (centres unmarked) [Compound 19b]"
subject_of_test = "OSBP (Homo sapiens)"
scale_unit = "%"
assay_result = 23

